Measured inhibition at 0.1 µM by item
tested on: ANGPTL4, a PPARG target gene, in HT1197 (RXRA S427F mutation) cells; test: Bladder cancer pharmacodynamic assay, HT1197 cell assay (qPCR of PPARG target gene ANGPTL4); format: cell-based; conditions: Homo sapiens, read-out: % inhibition of ANGPTL4 @ 100 nM, 100 nM compound, 24 hours, relative to DMSO control

{"columns": ["molecule", "inhibition at 0.1 µM [%]"],
 "data": [
  ["COc1ccc(C#N)nc1-c1cc(=O)c2c(F)cc(F)cc2[nH]1 [Example 7]", 23],
  ["CN1CCN(c2c(F)cc3[nH]c(-c4nc(C#N)ccc4Cl)cc(=O)c3c2F)CC1 [Example 13]", 78],
  ["CN(C)C(=O)C1CCN(c2c(F)cc3[nH]c(-c4cc(C#N)ncc4Cl)cc(=O)c3c2F)CC1 [Example 19]", 84],
  ["CN1CCN(c2c(F)cc3[nH]c(-c4cc(C#N)ncc4Cl)cc(=O)c3c2F)CC1 [Example 15]", 81],
  ["CN(C)CCOc1cnc(C#N)cc1-c1cc(=O)c2c(F)cc(F)cc2[nH]1 [Example 11]", 58],
  ["N#Cc1cc(-c2cc(=O)c3c(F)cc(F)cc3[nH]2)c(Cl)cn1 [Example 2]", 91],
  ["CN(C)C(=O)N1CCN(c2c(F)cc3[nH]c(-c4cc(C#N)ncc4Cl)cc(=O)c3c2F)CC1 [Example 21]", 81],
  ["CN(C)C(=O)[C@@H]1CCCN(c2c(F)cc3[nH]c(-c4cc(C#N)ncc4Cl)cc(=O)c3c2F)C1 [Example 22]", 91],
  ["CCSc1cnc(C#N)cc1-c1cc(=O)c2c(F)cc(F)cc2[nH]1 [Example 12]", 18],
  ["CS(=O)(=O)c1cnc(C#N)cc1-c1cc(=O)c2c(F)cc(F)cc2[nH]1 [Example 29]", 90],
  ["CN1CCN(c2cc3c(=O)cc(-c4cc(C#N)ncc4Cl)[nH]c3cc2Cl)CC1 [Example 14]", 88],
  ["N#Cc1cnc(Cl)c(-c2cc(=O)c3c(F)cc(F)cc3[nH]2)c1 [Example 27]", 70],
  ["N#Cc1ncc(Cl)c(-c2cc(=O)c3c(F)cc(F)cc3[nH]2)n1 [Example 33]", 31],
  ["COc1cnc(C#N)cc1-c1cc(=O)c2c(F)cc(F)cc2[nH]1 [Example 9]", 22],
  ["N#Cc1ccc(Cl)c(-c2cc(=O)c3c(F)cc(F)cc3[nH]2)n1 [Example 3]", 95],
  ["CS(=O)(=O)c1ccc(C#N)nc1-c1cc(=O)c2c(F)cc(F)cc2[nH]1 [Example 32]", 87],
  ["CS(=O)(=O)c1cnc(C#N)cc1-c1cc(=O)c2ccc(Cl)cc2[nH]1 [Example 30]", 88],
  ["N#Cc1cc(-c2cc(=O)c3c(F)c(N4CCS(=O)(=O)CC4)c(F)cc3[nH]2)c(Cl)cn1 [Example 18]", 57],
  ["CN1CCC(c2c(F)cc3[nH]c(-c4cc(C#N)ncc4Cl)cc(=O)c3c2F)CC1 [Example 20]", 80],
  ["CN1CCN(c2c(F)cc3[nH]c(-c4cc(C#N)ncc4Cl)cc(=O)c3c2F)CC1=O [Example 24]", 87],
  ["N#Cc1ccc(Cl)c(-c2cc(=O)c3cc(F)c(F)cc3[nH]2)n1 [Example 1]", 91],
  ["CN(C)C(=O)[C@@H]1CCN(c2c(F)cc3[nH]c(-c4cc(C#N)ncc4Cl)cc(=O)c3c2F)C1 [Example 25]", 86],
  ["CN1CCC(c2c(F)cc3[nH]c(-c4nc(C#N)ccc4Cl)cc(=O)c3c2F)CC1 [Example 16]", 85],
  ["CS(=O)(=O)c1cnc(C#N)cc1-c1cc(=O)c2c(F)cc(Cl)cc2[nH]1 [Example 31]", 86]
]}

====

target: PPARG/RXRA LBD heterodimer (Homo sapiens, UniProt P37231); construct: His-TEV-Q203-Y477; Uniprot ID P37231-2; made in house; host or cells: E. coli; assay: PPARγ-MED1 blockade assay (TR-FRET); type: biochemical; settings: maximal extent; GW9662 defined as 100%, DMSO 0%; read-out: % MED1 blockade relative to GW9662
Sequence (P37231 231-505): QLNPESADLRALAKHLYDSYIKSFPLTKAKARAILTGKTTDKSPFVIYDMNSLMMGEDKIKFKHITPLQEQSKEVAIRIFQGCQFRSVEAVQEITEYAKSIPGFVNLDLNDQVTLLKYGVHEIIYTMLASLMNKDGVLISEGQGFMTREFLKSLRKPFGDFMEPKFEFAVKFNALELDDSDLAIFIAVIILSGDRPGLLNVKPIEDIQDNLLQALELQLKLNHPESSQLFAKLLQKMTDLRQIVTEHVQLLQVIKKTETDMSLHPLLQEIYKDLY
Sequence (P19793 228-462 partner limits assumed): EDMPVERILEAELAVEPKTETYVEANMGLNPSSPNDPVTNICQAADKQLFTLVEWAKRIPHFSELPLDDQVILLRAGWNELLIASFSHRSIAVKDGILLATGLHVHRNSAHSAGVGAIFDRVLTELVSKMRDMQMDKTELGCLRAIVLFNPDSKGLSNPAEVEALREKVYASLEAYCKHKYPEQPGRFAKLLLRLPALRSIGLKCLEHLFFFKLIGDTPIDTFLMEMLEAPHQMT
Measured Emax by item

{"columns": ["compound", "Emax"],
 "data": [
  ["N#Cc1ccc(Cl)c(-c2cc(=O)c3c(F)cc(F)cc3[nH]2)n1 [Example 3]", "> 100%"],
  ["N#Cc1ccc(Cl)c(-c2cc(=O)c3cc(F)c(F)cc3[nH]2)n1 [Example 1]", "> 100%"],
  ["N#Cc1cnc(Cl)c(-c2cc(=O)c3c(F)cc(F)cc3[nH]2)c1 [Example 27]", "> 100%"],
  ["N#Cc1ccc(Cl)c(-c2cc(=O)c3ccccc3[nH]2)n1 [Example 5]", "> 100%"],
  ["CCSc1cnc(C#N)cc1-c1cc(=O)c2c(F)cc(F)cc2[nH]1 [Example 12]", "< 100%"],
  ["CS(=O)(=O)c1cnc(C#N)cc1-c1cc(=O)c2ccc(Cl)cc2[nH]1 [Example 30]", "> 100%"],
  ["CN(C)C(=O)[C@@H]1CCN(c2c(F)cc3[nH]c(-c4cc(C#N)ncc4Cl)cc(=O)c3c2F)C1 [Example 25]", "> 100%"],
  ["CN(C)C(=O)C1CCN(c2c(F)cc3[nH]c(-c4cc(C#N)ncc4Cl)cc(=O)c3c2F)CC1 [Example 19]", "> 100%"],
  ["N#Cc1cc(-c2cc(=O)c3ccc(Cl)cc3[nH]2)c(Cl)cn1 [Example 4]", "> 100%"],
  ["CSc1ccc(C#N)nc1-c1cc(=O)c2c(F)cc(F)cc2[nH]1 [Example 8]", "> 100%"],
  ["CN1CCN(c2c(F)cc3[nH]c(-c4nc(C#N)ccc4Cl)cc(=O)c3c2F)CC1 [Example 13]", "> 100%"],
  ["CN(C)C(=O)[C@H]1CCN(c2c(F)cc3[nH]c(-c4cc(C#N)ncc4Cl)cc(=O)c3c2F)C1 [Example 26]", "> 100%"],
  ["CN(C)C(=O)[C@@H]1CCCN(c2c(F)cc3[nH]c(-c4cc(C#N)ncc4Cl)cc(=O)c3c2F)C1 [Example 22]", "> 100%"],
  ["CN1CCC(c2c(F)cc3[nH]c(-c4nc(C#N)ccc4Cl)cc(=O)c3c2F)CC1 [Example 16]", "> 100%"],
  ["N#Cc1cc(-c2cc(=O)c3c(F)c(N4CCS(=O)(=O)CC4)c(F)cc3[nH]2)c(Cl)cn1 [Example 18]", "> 100%"],
  ["CN1CCN(c2cc3c(=O)cc(-c4cc(C#N)ncc4Cl)[nH]c3cc2Cl)CC1 [Example 14]", "> 100%"],
  ["CN(C)C(=O)[C@H]1CCCN(c2c(F)cc3[nH]c(-c4cc(C#N)ncc4Cl)cc(=O)c3c2F)C1 [Example 23]", "> 100%"]
]}

====

target: PPARG/RXRA LBD heterodimer (Homo sapiens); construct: 2 nM WT PPARG LBD (E. coli expressed, His-TEV-Q203-Y477); fused on or other part: N-terminal His tag with TEV site on the PPARG LBD; test: PPARγ-NCOR1 recruitment assay (TR-FRET); format: biochemical; conditions: TR-FRET, NCOR1 ID2 peptide, 80 nM Rosiglitazone, 3 hours; read-out: PPARG-NCOR recruitment assay EC50
Sequence (P37231 231-505 limits assumed): as the sequence (P37231 231-505) above
Sequence (O75376 2251-2273 limits assumed, further chain): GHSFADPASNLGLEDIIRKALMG
pEC50: −log10 of the molar value.
endpoint: pEC50

{"columns": ["cpd_smiles", "measurement_target", "value"],
 "data": [
  ["CN(C)C(=O)C1CCN(c2c(F)cc3[nH]c(-c4cc(C#N)ncc4Cl)cc(=O)c3c2F)CC1", "PPARG/RXRA LBD heterodimer (Homo sapiens)", "7.00 to 8.00"],
  ["N#Cc1cnc(Cl)c(-c2cc(=O)c3c(F)cc(F)cc3[nH]2)c1", "PPARG/RXRA LBD heterodimer (Homo sapiens)", "7.00 to 8.00"],
  ["CCSc1cnc(C#N)cc1-c1cc(=O)c2c(F)cc(F)cc2[nH]1", "PPARG/RXRA LBD heterodimer (Homo sapiens)", "< 5.00"],
  ["CN(C)C(=O)[C@H]1CCCN(c2c(F)cc3[nH]c(-c4cc(C#N)ncc4Cl)cc(=O)c3c2F)C1", "PPARG/RXRA LBD heterodimer (Homo sapiens)", "> 8.00"],
  ["CN(C)C(=O)[C@H]1CCN(c2c(F)cc3[nH]c(-c4cc(C#N)ncc4Cl)cc(=O)c3c2F)C1", "PPARG/RXRA LBD heterodimer (Homo sapiens)", "> 8.00"],
  ["N#Cc1ccc(Cl)c(-c2cc(=O)c3ccc(Cl)cc3[nH]2)n1", "PPARG/RXRA LBD heterodimer (Homo sapiens)", "> 8.00"],
  ["CN1CCC(c2c(F)cc3[nH]c(-c4cc(C#N)ncc4Cl)cc(=O)c3c2F)CC1", "PPARG/RXRA LBD heterodimer (Homo sapiens)", "7.00 to 8.00"],
  ["CN1CCN(c2cc3c(=O)cc(-c4cc(C#N)ncc4Cl)[nH]c3cc2Cl)CC1", "PPARG/RXRA LBD heterodimer (Homo sapiens)", "7.00 to 8.00"]
]}
